Recorded koff by entry
ASSAY_SYSTEM: T1, mouse EGFL7 (mEGFL7-CB-His) (mouse, UniProt Q9QXT5 22-275)
T1 sequence: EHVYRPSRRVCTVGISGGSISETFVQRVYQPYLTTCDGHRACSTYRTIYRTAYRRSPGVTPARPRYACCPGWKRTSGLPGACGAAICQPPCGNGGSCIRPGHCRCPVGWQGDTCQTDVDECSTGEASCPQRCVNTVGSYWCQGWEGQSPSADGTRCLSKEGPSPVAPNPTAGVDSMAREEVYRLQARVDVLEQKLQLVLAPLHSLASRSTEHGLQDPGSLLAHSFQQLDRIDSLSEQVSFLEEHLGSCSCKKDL
ASSAY_NAME: SPR (Biacore), IgG over immobilized mEGFL7-CB at 37 C;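 also: IgG injected as twofold series from 0.5 to 1000 nM, 3 min association and 3.5 min dissociation, reference flow cell subtracted, kinetics fitted to 1:1 Langmuir model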
MEASURE_NAME: koff (s⁻¹)

INSERT INTO assay_data (binder, measure_name, recorded_number) VALUES
  ('18F7.v6I IgG (antibody, V domains shown, IgG; Variant of 18F7.v6) VH: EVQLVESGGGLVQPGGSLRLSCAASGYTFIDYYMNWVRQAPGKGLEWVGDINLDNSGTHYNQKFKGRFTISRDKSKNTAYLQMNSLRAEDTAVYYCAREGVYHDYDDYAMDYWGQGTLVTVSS VL: DIQMTQSPSSLSASVGDRVTITCRTSQSLVHIQGITYLHWYQQKPGKAPKLLIYRVSNRFSGVPSRFSGSGSGTDFTLTISSLQPEDFATYYCGQSTHVPLTFGQGTKVEIK', 'koff', 0.000488),
  ('18F7.v6D IgG (antibody, V domains shown, IgG; Variant of 18F7.v6) VH: EVQLVESGGGLVQPGGSLRLSCAASGYTFIDYYMNWVRQAPGKGLEWVGDINLDSGGTHYNQKFKGRFTISRDKSKNTAYLQMNSLRAEDTAVYYCAREGVYHDYDDYAMDYWGQGTLVTVSS VL: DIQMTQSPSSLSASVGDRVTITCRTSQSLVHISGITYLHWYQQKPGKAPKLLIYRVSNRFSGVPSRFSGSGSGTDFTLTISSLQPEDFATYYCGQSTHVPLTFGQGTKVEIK', 'koff', 0.000791);
